Quick reference for log10 IC50 among some compounds
system: VLA-4/VCAM-1 (Homo sapiens, UniProt P05556+P13612)
Construct: Ramos cell-derived VLA-4; endogenous in cells
Sequence (P13612 34-1032): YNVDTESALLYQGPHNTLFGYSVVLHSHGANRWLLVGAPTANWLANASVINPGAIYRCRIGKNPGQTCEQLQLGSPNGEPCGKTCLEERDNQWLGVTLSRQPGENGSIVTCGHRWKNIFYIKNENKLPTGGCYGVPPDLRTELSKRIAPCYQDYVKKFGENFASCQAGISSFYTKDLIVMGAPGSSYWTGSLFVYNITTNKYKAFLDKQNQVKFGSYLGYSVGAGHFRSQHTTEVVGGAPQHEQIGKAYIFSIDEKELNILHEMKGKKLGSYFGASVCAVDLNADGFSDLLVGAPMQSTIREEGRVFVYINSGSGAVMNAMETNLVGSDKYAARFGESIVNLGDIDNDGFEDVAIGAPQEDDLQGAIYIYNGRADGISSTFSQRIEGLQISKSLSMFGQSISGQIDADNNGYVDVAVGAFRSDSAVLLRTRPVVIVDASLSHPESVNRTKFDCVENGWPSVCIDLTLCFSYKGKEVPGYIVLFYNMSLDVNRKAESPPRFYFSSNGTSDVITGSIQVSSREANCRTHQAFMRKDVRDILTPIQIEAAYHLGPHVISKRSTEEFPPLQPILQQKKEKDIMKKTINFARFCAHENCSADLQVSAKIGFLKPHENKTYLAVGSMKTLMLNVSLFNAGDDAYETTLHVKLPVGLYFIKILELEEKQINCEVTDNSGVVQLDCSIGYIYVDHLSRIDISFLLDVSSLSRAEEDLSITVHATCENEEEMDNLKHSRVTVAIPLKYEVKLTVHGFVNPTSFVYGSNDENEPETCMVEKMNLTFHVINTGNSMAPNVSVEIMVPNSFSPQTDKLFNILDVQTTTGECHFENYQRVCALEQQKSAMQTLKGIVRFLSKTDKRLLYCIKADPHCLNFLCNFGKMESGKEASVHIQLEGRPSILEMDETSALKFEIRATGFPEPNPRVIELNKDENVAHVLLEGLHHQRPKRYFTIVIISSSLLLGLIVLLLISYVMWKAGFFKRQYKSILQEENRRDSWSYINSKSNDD
Sequence (P05556 21-798): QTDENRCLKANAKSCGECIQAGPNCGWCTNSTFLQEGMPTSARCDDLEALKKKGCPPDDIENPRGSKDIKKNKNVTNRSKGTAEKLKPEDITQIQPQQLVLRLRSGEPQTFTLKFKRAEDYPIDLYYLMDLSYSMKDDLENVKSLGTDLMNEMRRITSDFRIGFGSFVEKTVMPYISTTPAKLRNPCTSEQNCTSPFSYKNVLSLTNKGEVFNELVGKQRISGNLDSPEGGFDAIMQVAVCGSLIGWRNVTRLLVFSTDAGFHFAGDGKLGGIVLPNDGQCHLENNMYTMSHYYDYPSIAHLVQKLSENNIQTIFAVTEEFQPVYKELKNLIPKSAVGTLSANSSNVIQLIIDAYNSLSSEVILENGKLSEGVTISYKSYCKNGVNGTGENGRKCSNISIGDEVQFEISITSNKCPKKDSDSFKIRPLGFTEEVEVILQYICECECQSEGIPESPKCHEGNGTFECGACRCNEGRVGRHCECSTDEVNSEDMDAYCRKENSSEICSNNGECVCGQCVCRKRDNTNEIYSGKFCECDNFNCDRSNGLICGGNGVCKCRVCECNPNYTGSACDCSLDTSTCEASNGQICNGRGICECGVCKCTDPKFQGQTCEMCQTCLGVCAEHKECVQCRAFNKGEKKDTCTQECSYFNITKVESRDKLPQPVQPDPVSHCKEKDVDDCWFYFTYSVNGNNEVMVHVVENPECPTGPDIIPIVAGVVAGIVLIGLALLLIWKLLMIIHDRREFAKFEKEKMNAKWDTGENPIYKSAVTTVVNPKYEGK
protocol: VLA-4/VCAM-1 Screening Assay (solid-phase, dual antibody ELISA)
appliedConditions: Ramos cell-derived VLA-4, immobilized recombinant human VCAM-1
A value of 2 here means IC50 of 100 in pM, since values are log10.

CC(=O)N1CC[C@H](c2ccc(O)cc2)[C@H]1C(=O)N[C@H]1CSSC[C@@H](C(=O)O)NC(=O)C2(CCCCC2)CCNC1=O [Example 19]: 2.08
CC(=O)N1CC[C@H](c2ccc(O)cc2)[C@H]1C(=O)N[C@H]1CSSC[C@@H](C(=O)O)NC(=O)C2(CCCC2)CCNC1=O [Example 12]: 2.27
CC(=O)N1CC[C@@H](c2ccc(O)cc2)[C@@H]1C(=O)N[C@H]1CSSC[C@@H](C(=O)O)NC(=O)C2(CCCC2)CCNC1=O [reference compound]: 3.22
CC(C)(C)C(=O)N1CC[C@H](c2ccc(O)cc2)[C@H]1C(=O)N[C@H]1CSSC[C@@H](C(=O)O)NC(=O)C2(CCCC2)CCNC1=O [Example 24]: 2.15
CS(=O)(=O)N1CC[C@H](c2ccc(O)cc2)[C@H]1C(=O)N[C@H]1CSSC[C@@H](C(=O)O)NC(=O)C2(CCCC2)CCNC1=O [Example 22]: 2.23

Please examine the following record next.
I'd like to know its log10 IC50. The compound in question is O=C(O)[C@@H]1CSSC[C@H](NC(=O)[C@H]2NCC[C@@H]2c2ccc(O)cc2)C(=O)NCCC2(CCCC2)C(=O)N1 [Example 26]
2.28

* * *

Quick reference for IC50 among some compounds
system: Ramos (VLA-4)/VCAM-1 (Homo sapiens, UniProt P05556+P13612)
Construct: Ramos cells bearing cell-surface VLA-4; endogenous in cells; soluble VCAM-1 purified from CHO cell culture media
Sequence (P13612 34-1032): as the sequence (P13612 34-1032) above
Sequence (P05556 21-798): as the sequence (P05556 21-798) above
protocol: Ramos (VLA-4)/VCAM-1 Cell-Based Screening Assay (Ramos-VCAM-1 cell adhesion)
appliedConditions: Calcein-AM labeled Ramos cells, immobilized recombinant human VCAM-1
Answer with a number only, understood to be in nM.

Consider the worked cases shown below.
CC(=O)N1CC[C@@H](c2ccc(O)cc2)[C@@H]1C(=O)N[C@H]1CSSC[C@@H](C(=O)O)NC(=O)C2(CCCC2)CCNC1=O [reference compound]: 24
CC(=O)N1CC[C@H](c2ccc(O)cc2)[C@H]1C(=O)N[C@H]1CSSC[C@@H](C(=O)O)NC(=O)C2(CCCCC2)CCNC1=O: 0.28

I'd like to know its IC50. The compound in question is CC(=O)N1CC[C@H](c2ccc(O)cc2)[C@H]1C(=O)N[C@H]1CSSC[C@@H](C(=O)O)NC(=O)C2(CCCC2)CCNC1=O
0.21

I'd like to know its IC50. The compound in question is CC(C)(C)C(=O)N1CC[C@H](c2ccc(O)cc2)[C@H]1C(=O)N[C@H]1CSSC[C@@H](C(=O)O)NC(=O)C2(CCCC2)CCNC1=O
0.18

Values from patent US6265572A
